assayed-target: UniProtKB P43235
Sequence (P43235 115-329): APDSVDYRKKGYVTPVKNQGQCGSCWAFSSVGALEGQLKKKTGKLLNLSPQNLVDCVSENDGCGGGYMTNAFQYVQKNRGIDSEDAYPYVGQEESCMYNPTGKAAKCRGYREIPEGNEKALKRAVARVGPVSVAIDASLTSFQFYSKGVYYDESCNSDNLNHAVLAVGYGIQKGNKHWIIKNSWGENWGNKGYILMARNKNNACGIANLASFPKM
test-summary: In vitro cathepsin Ki inhibition measurements
Format: biochemical
Design: purchased B. Turk, Josef Stefan Institute, Ljubljana, Slovenia
measurement-parameters: human recombinant cathepsin K; read-out: In vitro Ki (nM) vs Cath K
Procedure: Stock solutions of substrate or inhibitor were made up to 10 mM in 100% dimethylsulfoxide (DMSO) (Rathburns, Glasgow, U.K.) and diluted as appropriately required. […] The equilibrium inhibition constants (Ki^SS) for each compound were measured under steady-state conditions monitoring enzyme activity as a function of inhibitor concentration. The values were calculated on the assumption of pure competitive behaviour (Cornish-Bowden, A. Fundamentals of enzyme kinetics Portland Press; 1995, 93-128). […]
endpoint-name: Ki (nM)

A: CC(C)C[C@H](NC(=O)c1ccc(N2CCN(C)CC2)cc1)C(=O)N1CC[C@H]2OCC(=O)[C@H]21 [reference compound]
B: CO[C@@H]1CN(C(=O)[C@H](CC(C)C)NC(=O)c2ccc(N3CCN(C)CC3)cc2)[C@@H]2C(=O)CO[C@@H]21
In: Which value of Ki is smaller, the one for A or the one for B ? Record your answer as the label of the chosen record.
Out: A

###

test-summary: LogD determinations
Assay type: physicochemical
measurement-parameters: pH 7.4; Ion-count method
endpoint-name: LogD pH 7.4

Solved entries:
[[record]]
substance_smiles = "CCCN1CCC(c2ccc(C(=O)N[C@@H](CC(C)(C)C)C(=O)N3C[C@@H](OC)[C@H]4OCC(=O)[C@H]43)cc2)CC1"
quantitative_result = 1.12

[[record]]
substance_smiles = "CCN1CCN(c2ccc(C(=O)N[C@@H](CC(C)C)C(=O)N3C[C@H](OC)[C@H]4OCC(=O)[C@H]43)cc2)CC1"
quantitative_result = 1.05

[[record]]
substance_smiles = "CO[C@@H]1CN(C(=O)[C@H](CC(C)C)NC(=O)c2ccc(N3CCN(C)CC3)cc2)[C@@H]2C(=O)CO[C@@H]21"
quantitative_result = 0.42


I: COCCN1CCN(c2ccc(C(=O)N[C@@H](CC(C)C)C(=O)N3C[C@H](N)[C@H]4OCC(=O)[C@H]43)cc2)CC1
II: CCN1CCN(c2ccc(C(=O)N[C@@H](CC(C)(C)C)C(=O)N3C[C@@H](OC)[C@H]4OCC(=O)[C@H]43)cc2)CC1
In: I would appreciate it if you could say which entry, I or II , has the lower LogD pH 7.4 value. Answer format: the label of the selected item.
Out: I
(I: 0.55, II: 1.09)

###

assayed-target: UniProt:P43235
test-summary: In vitro cathepsin Ki inhibition measurements
Type: biochemical
Design: purchased B. Turk, Josef Stefan Institute, Ljubljana, Slovenia
measurement-parameters: human recombinant cathepsin K; read-out: In vitro Ki (nM) vs Cath K
endpoint-name: Ki (nM)

[[record]]
substance_smiles = "CO[C@H]1CN(C(=O)[C@H](CC(C)(C)C)NC(=O)c2ccc(N3CCN(C)CC3)cc2)[C@@H]2C(=O)CO[C@H]12"
assayed_target = "UniProt:P43235"
units_symbol = "nM"
quantitative_result = 6.3

[[record]]
substance_smiles = "CCN1CCN(c2ccc(C(=O)N[C@@H](CC(C)(C)C)C(=O)N3C[C@H](OC)[C@H]4OCC(=O)[C@H]43)cc2)CC1"
assayed_target = "UniProt:P43235"
units_symbol = "nM"
quantitative_result = 5.1

[[record]]
substance_smiles = "COCCN1CCN(c2ccc(C(=O)N[C@@H](CC(C)C)C(=O)N3C[C@H](OC)[C@H]4OCC(=O)[C@H]43)cc2)CC1"
assayed_target = "UniProt:P43235"
units_symbol = "nM"
quantitative_result = 6.3


Hello, the source for this data is patent US7803803B2, in case you need it.
